Sourced from PubChem BioAssay AID777

molecular target: Cytochrome P450 2C9 (Homo sapiens); assay: blockers of cytochrome P450 2C9 activity – biochemical, luminescence, ADME assay, primary screen (AID 777); conditions: CYP2C9 Supersomes, luciferin-H conversion, at 5 µM, stronger effect = higher value
Screen size: about 96,000 compounds; about 19,000 (20%) were called active. These entries were drawn from the full list.
PROPERTY NAME: inhibition (%)
Report as a plain number; the unit % is understood.

Example entries and their recorded answers appear below.
COMPOUND: C=CCNC(=O)c1sc(SC)cc1-c1ccc(Cl)cc1
RECORDED NUMBER: 64
//
COMPOUND: CC(CNC(=O)c1ccc(Br)o1)NC(=O)c1ccc(Br)o1 (configuration not stated)
RECORDED NUMBER: 25.6
//
COMPOUND: C=CCNC(=O)c1ccc(C)c(Br)c1
RECORDED NUMBER: -17.9
//
COMPOUND: CC(CNc1ccc([N+](=O)[O-])cc1)NC(=O)c1ccccc1Br (configuration not stated)
RECORDED NUMBER: 70.7
//
COMPOUND: CC(CCc1ccccc1)NC(=O)c1ccc(Br)o1 (configuration not stated)
RECORDED NUMBER: 18.7
//
COMPOUND: Cc1ccc(C)c2[nH]c(=O)c(CCNC(=O)CC(C)C)cc12
RECORDED NUMBER: 30.9

Task item: For the compound shown here, Oc1ccc(CNc2ccccc2O)cc1 , give the reported inhibition.
Reply: 22.4

----------
biological target: Cytochrome P450 2C9 (Homo sapiens) (UniProt P11712); assay: blockers of cytochrome P450 2C9 activity – biochemical, luminescence, ADME assay, primary screen (AID 777); details: CYP2C9 Supersomes, luciferin-H conversion, at 5 µM
Sequence (P11712 whole entry, looked up): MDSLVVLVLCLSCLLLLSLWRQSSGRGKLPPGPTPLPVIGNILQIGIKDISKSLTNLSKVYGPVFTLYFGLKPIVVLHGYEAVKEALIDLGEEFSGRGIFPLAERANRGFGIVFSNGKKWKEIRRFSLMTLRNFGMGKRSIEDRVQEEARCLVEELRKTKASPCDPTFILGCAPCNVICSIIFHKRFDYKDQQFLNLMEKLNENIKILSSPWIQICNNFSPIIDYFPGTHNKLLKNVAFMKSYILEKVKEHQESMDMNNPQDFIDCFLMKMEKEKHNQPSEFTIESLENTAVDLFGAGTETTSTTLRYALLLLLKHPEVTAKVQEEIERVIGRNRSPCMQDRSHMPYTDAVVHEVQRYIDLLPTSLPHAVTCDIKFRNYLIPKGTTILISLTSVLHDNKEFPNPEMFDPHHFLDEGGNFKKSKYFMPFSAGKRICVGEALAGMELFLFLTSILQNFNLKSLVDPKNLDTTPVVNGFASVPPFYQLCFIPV
The whole screen tested about 96,000 compounds, of which about 19,000 (20%) were called active.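 How the source made its calls: active means blocking of liver enzyme CYP2C9 beyond about 50% at 5 µM (limit read from the data); inactive means the rest.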 These entries were drawn from the full list.
Log the outcome using a class from Yes (active), No (inactive)

Task item: Name the outcome recorded for Cc1ccc(SCC(=O)Nc2ncc(C)s2)cc1 in the assay.
Reply: No

Task item: Let us now turn to N#Cc1nc(COc2ccc(Cl)cc2)oc1N1CCCC1
Reply: No

Task item: # repeat for Cc1csc(NC(=O)CN2CCCCCC2)n1
Reply: No

Task item: Item: CCCOc1ccc(CN(CCO)CCO)cc1C(=O)OC
Reply: No

Task item: Also need CC1(C)Cc2cccc(OCC(N)=O)c2O1 , thanks.
Reply: No

Task item: Now this one: Cn1c(Cc2csc(N)n2)nnc1SC/C=C/c1ccccc1
Reply: No

Task item: Now try COc1cc(OC)c(C(=O)NC2CC(C)(C)NC(C)(C)C2)cc1OC .
Reply: No

Task item: Also Cc1nc(-c2ccccc2)sc1C(=O)/C=C/c1ccccc1 , if possible.
Reply: No

Task item: Moving on to the next compound: O=C(NCCCCO)C(F)(F)C(F)(F)C(F)(F)C(=O)NCCCCO
Reply: No

Task item: Then what about the compound Cc1cc2c(c(=O)n1C)C(C(C)C)C(C#N)=C(N)O2 (centres undefined) ?
Reply: No

Task item: How about this compound: Cc1cc(NC(=O)COc2ccc(Cl)cc2Cl)n(CCC#N)n1
Reply: No

Task item: Try this compound next: Cc1ccc(CCn2c3c(c4ccccc42)CN(C)CC3)cn1
Reply: No

Task item: Now consider CCOc1ccc(C(CCc2ccccc2)NC(=O)c2ccc(OC)c(OC)c2)cc1OCC (centres undefined) .
Reply: Yes

Task item: Item: Cc1c(C)c2cc3c4c(oc3c(C)c2oc1=O)CCCC4
Reply: No

Task item: Also check Cc1ccc(C(C(=O)NCc2ccco2)N(CC2CCCO2)C(=O)Cn2nnc3ccccc32)cc1 (centres undefined)
Reply: No

Task item: Again, but for COc1ccccc1-c1nc(C#N)c(N2CCC(C(N)=O)CC2)o1
Reply: No
